Tested on: UACC-257 melanoma
Assay: NCI tumour cell line growth inhibition, 48 h
property name: TGI (µM)
Please give a number only; it is taken to be in µM.

# input Suppose we examine the molecule CC1=CC(=O)[C@@H](O)[C@]2(C)[C@H]3[C@@]4(O)OC[C@@]35[C@@H](C[C@@H]12)OC(=O)C(OC(=O)CC1=CCCC1)[C@H]5[C@@H](C)[C@H]4O (stereo not given in full) ; what TGI value has been reported?
# output 0.217

# input Suppose we examine the molecule CN(C)C1=NC2=S(SC(Nc3ccccc3)=N2)S1 (stereo not given) ; what TGI value has been reported?
# output 70.8

# input Suppose we examine the molecule CC1OC(n2c3ccccc3c3c4c(c5c6ccccc6[nH]c5c32)C(=O)N(CCN2CCOCC2)C4=O)CC(O)C1O (stereo not given) ; what TGI value has been reported?
# output 14.5

# input Suppose we examine the molecule `COc1ccc2cc(Cn3cc[n+](Cc4ccc5ccccc5c4)c3)ccc2c1` ; what TGI value has been reported?
# output 5.09

# input Suppose we examine the molecule `CC(C)NC(=O)OCc1c(COC(=O)NC(C)C)c(-c2ccc(Cl)c(Cl)c2)n2c1CCC2` ; what TGI value has been reported?
# output 65.9

# input Suppose we examine the molecule `O=C(O)c1cccc2cccc(C(=O)O)c12.[Hg]` ; what TGI value has been reported?
# output 30.8

# input Suppose we examine the molecule CCC1c2[nH]c3ccccc3c2C[C@H]2C(=O)NC(CCCCNC(=O)OC(C)(C)C)C(=O)N12 (stereo not given in full) ; what TGI value has been reported?
# output 66.8

# input Suppose we examine the molecule C=CC[C@@H]1/C=C(\C)C[C@H](C)C[C@H](OC)[C@H]2O[C@@](O)(C(=O)C(=O)N3CCCC[C@H]3C(=O)O[C@H](/C(C)=C/C3CC[C@@H](O)[C@H](OC)C3)[C@H](C)[C@@H](O)CC1=O)[C@H](C)C[C@@H]2OC (stereo not given in full) ; what TGI value has been reported?
# output 30.6

# input Suppose we examine the molecule `CC1(C)N=C(N)N=C(N)N1c1cccc(CCCCOc2ccccc2)c1` ; what TGI value has been reported?
# output 23.5

# input Suppose we examine the molecule `O=[N+]([O-])c1ccc(N/N=C(\c2ccccc2)c2ccccn2)nc1` ; what TGI value has been reported?
# output 29.8

# input Suppose we examine the molecule `Cc1ccc2[nH]c3c(c2c1)CCC/C3=N/N=C(N)N` ; what TGI value has been reported?
# output 7.41

# input Suppose we examine the molecule `CCOC(=O)NC(=O)c1cn(CCCOC(=O)NCCCCCCNC(=O)OCCCn2cc(C(=O)NC(=O)OCC)c(=O)[nH]c2=O)c(=O)[nH]c1=O` ; what TGI value has been reported?
# output 37

# input Suppose we examine the molecule `N#CCCOCN(CO)c1nc(N(CO)COCCC#N)nc(N(CO)COCCC#N)n1` ; what TGI value has been reported?
# output 63.9

# input Suppose we examine the molecule `CC(C)n1c(=O)n(C)c2cnc3cc(F)c(-c4ccc(OCCCN5CCCCC5)nc4)cc3c21` ; what TGI value has been reported?
# output 36.8
